- Target System: recombinant soluble homotrimeric HA, A/common magpie/Hong Kong/5052/07 H5N1 (Influenza A virus A/common magpie/Hong Kong/5052/2007(H5N1))
- Protocol Details: microarray, transfection SN IgG, trimeric HA
- Conditions: remark: other sources report otherwise
Observation Type: Trimeric HA Binding: RLU (RLU)
Answers are plain numbers, in RLU.

Binder | Observation Type | Observed Value
TCN-523 (5248_A17) (antibody, V domains shown) VH: QVQLVQSGAEVKKPGSSVKVSCKASGGSFSNYAFSWVRQAPGQGLEWMGGTIPLLGTTNYAQKFQGRVTISADQFTSTAYMELGSLRSEDTAVYYCTRRKMTTAFDSWGQGTLVTVSS VL: QPVLTQPPSASASLGASVTLTCTLSSAYSNYKVDWYQQRPGKGPRFVMRVGTGGIVGSKGDGIPDRFSVLGSGLNRYLTIKNIQEEDESDYHCGADHGSGSNFVSPYVFGGGTKLTVL | Trimeric HA Binding: RLU | 33900

Count: 6. Required value per item: Trimeric HA Binding: RLU.
1. TCN-552 (5249_I23) (antibody, V domains shown) VH: QVQVVQSGAEVKKPGSSVRVSCQASGGTFMNYAIIWVRRAPGQGLEWMGGIIPVFPTPNYAQMFQGRVTISTDESRSTSFLELTNLRYEDTAVYYCARRIYHGGNSGFDFWGQGTLVTVSS VL: EIVLTQSPATLSLSPGERATLSCRASQSVGNYLAWYQQKPGQAPRLLIYDSSNRAPGIPARFSGSGSGTDFTLTISSLAPEDFAVYYCQQRSKWPPMYSFGHGTKLEIK
2. TCN-550 (5096_F06) (antibody, V domains shown) VH: QVQLQESGPGLVKPSETLSLTCTVSGASINSHYWSWIRQPPGKGLEWIGYVYYSGSTTYNPSLKSRVTLSVDTSKNQFSLNLSSVTAADTAFYYCARHPYDVLTGSGDWFDPWGQGTLVTVSS VL: SYVLTQAPSVSVAPGQTARITCGGNAIGSKKVHWYQHKAGQAPVLVVYDDTDRPSGIPERFSGSNSWSTATLTINRVEAGDEADYYCQVWDFTIDHVVFGGGTKLTVL
3. TCN-557 (5081_A04) (antibody, V domains shown) VH: QVQLVQSGAEVKKPGASVKVSCKASGHTFTGYYIHWVRQAPGQGLEWMGWINPDSGATSSAQNFQGRVTMTGDTSSSTAYMELSRLSFDDTAVYYCARVLFTSPFDFWGEGTLVTVSS VL: QAVVTQEPSLAVSPGGTVTLTCGSSTGAVTRGHYPYWFQQKPGQAPRALIYDSAGNRHSWTPARFSGSLLGGKAALTLSGAQPEDEAEYYCLLSYSGVWVFGGGTKLTVL
4. TCN-504 (3251_K17) (antibody, V domains shown) VH: QVQLQESGPGLVKPSETLSLTCAVSGVSISNIDFYWGWIRQPPGKGLEWIGNIYYTGITFYNPSLSSRVAISIDTSKNQFSLTLTSVTAADTAMYYCARHYGDSEAINDAFDIWGQGTMLTVSS VL: EIVMTQSPATLSVSPGERATLSCRASQSVGNSLAWYQQRPGQAPRLLIYGASTRATGIPPRFSGSGSGTEFTLTISSLQTEDFAVYYCQQYINWRPLSFGGGTKVEIK
5. TCN-553 (5261_C18) (antibody, V domains shown) VH: QVQVVQSGTEVKKPGSSVKVSCQTSGGRFMSYAITWVRQAPGQGLEWMGGIVPVFGTANYAQKFQGRVTITTDDSTRTAYMELSSLRSEDTAVYYCGFRYGSGYGFDSWGQGTLVTVSS VL: EIVLTQSPGTLSLSPGERATLSCRASQSVSSSYLAWYQKKPGQAPRLLIYGASTRATGIPDRFTGSGSGTDFTLSISRLEPEDFAVYYCQHFGTSVFTFGGGTKVEIK
6. TCN-555 (5246_L16) (antibody, V domains shown) VH: QVQLVQSGAEVKRPGSSVKVSCTASGGIFRKNAISWVRQAPGQGLEWMGGIIAVFNTANYAQKFQNRVKITADESGNTAYMELSSLTSDDTAVYYCASHPKYFYGSGSYPDFWGQGTLVTVSS VL: QSALTQPRSVSGSPGQSITISCTGGSSDIGASNSVSWYQQHPGKAPKLVIFDVTERPSGVPHRFSGSKSGNTASLTVSGLQPDDEADYFCCAYGGKYLVVFGGGTKVTVL

1: 34600; 2: 993; 3: 54900; 4: 37300; 5: 39200; 6: 33600
